The reported measurements were obtained from paper PMC3573116.

Molecular target: T1, DENV2 D2S10 envelope (E) protein on virions (dengue virus 2 (DENV2), strain D2S10)
T1 construct: also called DENV2 virions
Experiment: ELISA
Settings: one partner purified
Give measured log10 Kd for each item. Keep answers brief.
Give log10 of Kd, with Kd taken in nM.

## Task log10 Kd for chimeric human-mouse MAb E76 (human IgG1), non-modified (antibody, V domains shown, source: HEK-293T, transfected, purified from supernatant (protein A)) VH: QVTLKESGPGILQSSQTLSLTCSFSGFSLSTSSMGVSWIRQPSGKGLEWLAHIYWDDDKRYSPSLKSRLTISKDTSRNQVFLKITSVENVDSATYYCARKDGYVPYSLDYWGQGISVTVSS VL: DIVMTQSHKFMSTSVGDRVSISCKASQAVGTAVAWYQQKPGQSPKLLIYWASTRHTGVPDRFTGSGSGTDFTLTINNVQSEDLADYFCHQYTSYPLTFGTGTKLELK ?
## Result -0.08

## Task Bench note: what log10 Kd did human MAb 82.11 LALA (IgG1) (antibody, V domains shown, source: HEK-293T, purified (protein A, size-exclusion chromatography)) VH: QAHLVESGGGVVQPGRSLRLSCAASAFNFSTNAMHWVRQAPGKGLEWVAVISYDGSHKYYADSVKGRFTISRDNSKNTLYLQMNSLRAADTAVYYCATVGVLTWPVNAEYFHHWGQGSLVSVSS VL: QSVLTQPPSVSGAPGQRVTISCTGSSSNIGAGYDVHWYQQLPGTAPKLLICGNNNRPSGVPDRFSGSKSGTSASLAITGLQAEDEADYYCQSYDSSLTGVVFGGGTKLTVL show?
## Result -0.04

## Task Fill in: log10 Kd of chimeric human-mouse MAb E44 (human IgG1), non-modified (antibody, V domains shown, source: HEK-293T, transfected, purified from supernatant (protein A)) VH: QVQLKESGPGLVAPSQSLSITCTVSGFSLTSYGVDWVRQSPGKGLEWLGVIWGAGSTNYNSAFRSRLSISKDNSKSQVFLKMNSLQTDDTAMYYCASGTGTGAMDYWGQGTSVTVSS VL: DIVLTQSPATLSVTPGDSVSLSCRASQSISNNLHWYQQKSHESPRLLIFYSSQSISGIPSRFSGSGSGTDFTLRINSVETEDFGMYFCQQSNNWPHTFGRGTKLDMK is ___
## Result -0.85

## Task Look up log10 Kd: chimeric human-mouse MAb E18 N297Q (human IgG1, aglycosylated) (antibody, V domains shown, source: HEK-293T, transfected, purified from supernatant (protein A)) VH: QIQLVQSGPELKKPGETVKISCKASGYTFTDYSMHWVKQAPGKGLKWMGWFNTETGEPTYADDFKGRFAFSLETSASTAFLQINNLKNEDTATYFCARGGDFYSVDYWGQGTSVTVSS VL: DIQMTQTTSSLSASLGDRVTISCRASQDITNYLNWYQQKPDGTVKLLIYYTSGLHSGVPSRFSGSGSGTDYSLTISNLEQEDIATYFCQQGNTLPPTFGGGTKLEIK
## Result 0.54

## Task I'd like to know its log10 Kd. The binder in question is chimeric human-mouse MAb E44 N297Q (human IgG1, aglycosylated) (antibody, V domains shown, source: HEK-293T, transfected, purified from supernatant (protein A)) VH: QVQLKESGPGLVAPSQSLSITCTVSGFSLTSYGVDWVRQSPGKGLEWLGVIWGAGSTNYNSAFRSRLSISKDNSKSQVFLKMNSLQTDDTAMYYCASGTGTGAMDYWGQGTSVTVSS VL: DIVLTQSPATLSVTPGDSVSLSCRASQSISNNLHWYQQKSHESPRLLIFYSSQSISGIPSRFSGSGSGTDFTLRINSVETEDFGMYFCQQSNNWPHTFGRGTKLDMK
## Result -0.08

## Task Which log10 Kd is listed for chimeric human-mouse MAb E60 N297Q (human IgG1, aglycosylated) (antibody, V domains shown, also called modified E60; source: HEK-293T, transfected, purified from supernatant (protein A)) VH: EVQVQQSGPELVTPGASVKISCKTSGYTFTEYTVHWVKQSHGKSLEWIGGINPTSGGTNYNQRFRGKATLTVDRSSSTAYMELRSLTSEDSAVYFCAGTLYGYPFDFWGQGTTLTVSS VL: DILMTQSPSSMSVSLGDSVSITCHASQGISGNIGWLQQKPGKSFKGLIYHGTNLEEGVPSRFSGSGSGADYSLTISSLESEDFADYYCVQYGQFPPTFGGGTKLEIK ?
## Result 0.07

## Task Looking for the measured log10 Kd of chimeric human-mouse MAb E28 (human IgG1), non-modified (antibody, V domains shown, source: HEK-293T, transfected, purified from supernatant (protein A)) VH: QIQLVQSGPELKKPGETVKISCKASGYTFTDYSMHWVKQTPGKGLKWLGWINPKTGEPTYVDDFKGRFAFYLETSSSTAYLQITNLKNEDTATYFCARGYDYYSVDYWGQGTLVTVSS VL: DIQMTQTTSSLSASLGARVTISCRANQDINNYLHWYQQKPDGTIKLLVYYTSGLHSGVPSRFIGSGSGTDYSLTITNLEQEDIATYFCQQGNTLPLTFGAGTKLELK , can you help?
## Result 0.43

## Task Fill in: log10 Kd of chimeric human-mouse MAb E87 N297Q (human IgG1, aglycosylated) (antibody, V domains shown, source: HEK-293T, transfected, purified from supernatant (protein A)) VH: QVQLQQPGADLVRPGTSVKLSCKASGYTFTIYWMHWVKQRPGQGLEWIGVIDPSAGYTNYSQNFKDKATLTVDTSSSTAYMQLNSLTSEDSAVYYCARHGHYFGTSYWYFDVWGTGTTVTVSS VL: DIVMSQSPSSLAVSVGEKVTMRCKSSQSLLYSRNQKNYLAWYQQKPGQSPKVLIYWASTRESGVPDRFTGSGSGTDFTLTISSVKTEDLSVYYCQQYYSYPFTFGSGTKLEIK is ___
## Result 0.16

## Task Consider the binder shown here: human MAb 87.1 LALA (IgG1) (antibody, V domains shown, source: HEK-293T, purified (protein A, size-exclusion chromatography)) VH: EVQLVESGGGLVQPGRSLRLSCAASGFTFDDYAMFWVRQAPGKGLEWISGISWNSATIGYADSVKGRFTISRDNAKKSLDLQMNSLRPDDTALYYCAKGGPRGLQLLSSWVDYWGQGTLVTVSS VL: DIQMTQSPSSLSASVGDRVTITCRASQDIRRYLNWYQQRPGRVPQLLIYTTSTLQSGVPSRFSGSGSVTDFTLTISSLQPEDFGTYYCQQSYSPPHTFGQGTKLEIK What is its recorded log10 Kd?
## Result -0.47

## Task I would be grateful if you could share the reported log10 Kd for chimeric human-mouse MAb E60 (human IgG1), non-modified (antibody, V domains shown, also called intact E60; E60 parent; source: HEK-293T, transfected, purified from supernatant (protein A)) VH: EVQVQQSGPELVTPGASVKISCKTSGYTFTEYTVHWVKQSHGKSLEWIGGINPTSGGTNYNQRFRGKATLTVDRSSSTAYMELRSLTSEDSAVYFCAGTLYGYPFDFWGQGTTLTVSS VL: DILMTQSPSSMSVSLGDSVSITCHASQGISGNIGWLQQKPGKSFKGLIYHGTNLEEGVPSRFSGSGSGADYSLTISSLESEDFADYYCVQYGQFPPTFGGGTKLEIK .
## Result 0.06
